What Reduction [%] was measured for each of the following?
tested on: ZEAMA Sileno; test: Safener seed treatment, pre-emergence herbicide crop damage; type: in vivo, maize; conditions: HER 80 g a.i./ha + metcamifen seed treatment 0.25 g a.i./kg seed, 14 DAT
Form entry: value (%) — number only.

Challenge: // lookup Reduction [%] | system=ZEAMA Sileno | key= C=CC1(C(=O)NC2C=CC(C(=O)OC)C2)CC(c2cc(F)cc(F)c2)=NO1 (stereo not shown)
Response given: 86

Challenge: // lookup Reduction [%] | system=ZEAMA Sileno | key= C=CC1(C(=O)NC2COC(C(=O)OC)C2)CC(c2cc(F)cc(F)c2)=NO1 (stereo not shown) [Example 1.70]
Response given: 63

Challenge: // lookup Reduction [%] | system=ZEAMA Sileno | key= C=CC1(C(=O)NC2COC(C(=O)OC)C2)CC(c2cc(F)cc(F)c2)=NO1 (mixture of isomers) [Example 1.68]
Response given: 23

Challenge: // lookup Reduction [%] | system=ZEAMA Sileno | key= COCCOC(=O)C1C=CC(NC(=O)C2(C)CC(c3cc(Cl)cc(C#N)c3)=NO2)C1 (stereo not shown)
Response given: 42
